Reference source: ChEMBL document CHEMBL2396549

assay.remarks: Oral bioavailability in mouse at 9 mg/kg
Assay type: ADME, organism-based
condition.description: in vivo
reported.metric: bioavailability

Ask: Please give the measured bioavailability for this molecule: CC(C)[C@@H](NC(=O)[C@@H]1CC[C@@H](O)C1)C(=O)N1CC[C@](O)(c2ccc(Cl)cc2)C(C)(C)C1 (mixture of isomers)
Result: 100%

----------
experimental.target: C-C chemokine receptor type 1 (Homo sapiens, UniProt P32246)
Sequence (P32246 whole entry): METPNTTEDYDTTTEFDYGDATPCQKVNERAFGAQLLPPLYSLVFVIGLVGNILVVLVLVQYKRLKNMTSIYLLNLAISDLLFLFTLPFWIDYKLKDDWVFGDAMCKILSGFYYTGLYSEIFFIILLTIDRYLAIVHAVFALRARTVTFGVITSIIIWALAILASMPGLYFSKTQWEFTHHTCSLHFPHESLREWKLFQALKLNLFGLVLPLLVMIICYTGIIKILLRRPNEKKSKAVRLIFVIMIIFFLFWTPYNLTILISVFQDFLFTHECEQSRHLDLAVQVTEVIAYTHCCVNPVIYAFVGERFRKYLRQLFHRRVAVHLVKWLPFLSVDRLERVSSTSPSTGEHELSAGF
assay.remarks: Binding affinity to human CCR1
Consider the following compounds and their measured pIC50 readings.
FYI, pIC50 means -log10 of a concentration in mol per litre.

# annotated cases, reported pIC50 shown
CC(C)[C@@H](NC(=O)c1ccc(S(N)(=O)=O)cc1)C(=O)N1CC[C@](O)(c2ccc(Cl)cc2)C(C)(C)C1; 6.63
CC(C)[C@@H](NC(=O)CCc1ccccc1)C(=O)N1CC[C@](O)(c2ccc(Cl)cc2)C(C)(C)C1; 8.24
CC(C)[C@@H](NC(=O)[C@@H]1CC[C@@H](O)C1)C(=O)N1CC[C@](O)(c2ccc(Cl)cc2)C(C)(C)C1 (mixture of isomers); 9.10

Alright, here's another compound for you.
Ask: Please give the measured pIC50 for this compound: CC(C)[C@@H](NC(=O)Cc1ccccc1)C(=O)N1CC[C@](O)(c2ccc(Cl)cc2)C(C)(C)C1
Result: 8.39
